Assay: Cynomolgus monkey tolerability, hematology (Example 34)
Type: in vivo, cynomolgus monkeys
Conditions: cynomolgus monkey, in vivo, sc, 35 mg/kg
MEASURED ENDPOINT: Retic (%)
Give a bare numeral; the unit % is implied.

Below, each entry is followed by its recorded Retic result.
1198872 (TGTATGTCAGAAGAGT; chemically modified gapmer, further chemistry not given here) [compound 1198872]	1.2
1076453 (GTAATATTGCAATCTG; 3-10-3 cEt gapmer, further chemistry not given here) [compound 1076453]	1.2
958499 (ATTAGAGTATGTGGCA; 3-10-3 cEt gapmer, further chemistry not given here) [compound 958499]	1.5
1198439 (AGTGTATGTCAGAAGA; sugar, 5-methylcytosine, phosphorothioate modifications, further chemistry not given here) [compound 1198439]	1.2
1198440 (AAGTGTATGTCAGAAG; cEt, 2'-MOE, 5-methylcytosine, phosphorothioate modifications, further chemistry not given here) [compound 1198440]	1.2

Query: Please give the documented Retic of 1198831 (CACTTTTACATTAGGA; chemically modified gapmer, further chemistry not given here) [compound 1198831]
Result: 1.0

* * *

Test system: Yap1 mRNA
Assay: Antisense inhibition of human Yap1 in SNU-449 cells by modified oligonucleotides, single dose (Example 5, RTS36584)
Format: cell-based
Details: Table 41; SNU-449 cells, 10,000 cells per well, free uptake, 2,000 nM modified oligonucleotide, approximately 48 hours; RTS36584; normalized to RIBOGREEN; Yap1 mRNA relative to untreated control cells
Strand notation (5' to 3'): a small letter for the sugar, then the base; units joined by * are phosphorothioate-linked, units joined directly phosphodiester-linked; [ ] holds rarer units or linkages, { } end groups; capitals alone tell only the bases. e = 2'-O-(2-methoxyethyl) (MOE); k = constrained ethyl (cEt); [5mC] = 5-methylcytosine; d = 2'-deoxy (DNA)
Parameter YAP1 (% UTC): see the listing below.
Give a bare numeral; the unit % UTC is implied.

Below, each entry is followed by its recorded YAP1 (% UTC) result.
1198669 (antisense kA*kG*dG*dA*dT*dG*d[5mC]*dA*dT*dG*dG*dT*kT*eT*kT*eT) [Compound 1198669]	61
1198768 (kA*eT*kA*dT*dG*dG*dT*dT*dT*dT*dG*dT*eG*eT*kG*kT; antisense) [Compound 1198768]	61
1198671 (antisense kT*kT*dT*dA*dG*dG*dA*dT*dG*d[5mC]*dA*dT*kG*eG*kT*eT) [Compound 1198671]	26
1198658 (kA*kA*dG*d[5mC]*dA*d[5mC]*dT*dT*dT*dT*dA*d[5mC]*kA*eT*kT*eA; antisense) [Compound 1198658]	62
1198790 (antisense kT*eA*kA*dA*dG*dT*dG*dT*dA*dT*dG*dT*e[5mC]*eA*kG*kA) [Compound 1198790]	27

Query: Please give the documented YAP1 (% UTC) of 1198691 (antisense kG*kT*dA*dA*dT*dA*dT*dT*dG*d[5mC]*dA*dA*kT*e[5mC]*kT*eG) [Compound 1198691]
Result: 38

Query: Please give the documented YAP1 (% UTC) of 1198639 (kT*kA*dG*dA*dG*dT*dA*dT*dG*dT*dG*dG*k[5mC]*eA*kA*eT; antisense) [Compound 1198639]
Result: 32

Query: Please give the documented YAP1 (% UTC) of 1198664 (antisense kG*k[5mC]*dT*dT*dT*dG*dG*dA*dA*dG*dA*dT*k[5mC]*eT*kG*eA) [Compound 1198664]
Result: 18

Query: Please give the documented YAP1 (% UTC) of 1198637 (kA*kG*dT*dA*dT*dG*dT*dG*dG*d[5mC]*dA*dA*kT*eA*kA*eT; antisense) [Compound 1198637]
Result: 64
